Values were extracted from ChEMBL document CHEMBL4610017.

# run.description: Competitive inhibition of Anopheles gambiae 3-hydroxykynurenine transaminase
readout.type: Ki (µM)

> print(dat)
          smiles.notation  value.units  quantitative.result
1  Nc1ccccc1C(=O)CCC(=O)O           µM                  300
